Test: Stability tests of analytes in rat plasma QC samples
Assay type: in vitro ADME
Settings: rat plasma, nominal conc. 400 nM
PARAMETER: Extracted samples at 8 °C for 18 h, RE
Answer format: number, then unit.

- COMPOUND: "CC(C)=CCC[C@](C)(O)[C@H]1CC[C@]2(C)[C@@H]1[C@H](O)C[C@@H]1[C@@]3(C)CC[C@H](O)C(C)(C)[C@@H]3[C@@H](O[C@@H]3O[C@H](CO)[C@@H](O)[C@H](O)[C@H]3O[C@@H]3O[C@H](CO)[C@@H](O)[C@H](O)[C@H]3O)C[C@]12C [Compound C7, Ginsenoside Rf]"
  RESULT: "-12.43%"
- COMPOUND: "CC(C)=CCC[C@](C)(O)[C@H]1CC[C@]2(C)[C@@H]1[C@H](O)C[C@@H]1[C@@]3(C)CC[C@H](O)C(C)(C)[C@@H]3[C@@H](O[C@@H]3O[C@H](CO)[C@@H](O)[C@H](O)[C@H]3O)C[C@]12C [Compound C1, Ginsenoside Rh1]"
  RESULT: "12.32%"
- COMPOUND: "CC(C)=CCC[C@](C)(O)[C@H]1CC[C@]2(C)[C@@H]1[C@H](O)C[C@@H]1[C@@]3(C)CC[C@H](O)C(C)(C)[C@@H]3[C@@H](O[C@@H]3O[C@H](CO)[C@@H](O)[C@H](O)[C@H]3O[C@@H]3O[C@@H](C)[C@H](O)[C@@H](O)[C@H]3O)C[C@]12C [Compound C5, Ginsenoside Rg2]"
  RESULT: "-10.83%"
- COMPOUND: "CC(C)=CCC[C@](C)(O[C@@H]1O[C@H](CO[C@@H]2OC[C@H](O)[C@H](O)[C@H]2O)[C@@H](O)[C@H](O)[C@H]1O)[C@H]1CC[C@]2(C)[C@@H]1[C@H](O)C[C@@H]1[C@@]3(C)CC[C@H](O[C@@H]4O[C@H](CO)[C@@H](O)[C@H](O)[C@H]4O[C@@H]4O[C@H](CO)[C@@H](O)[C@H](O)[C@H]4O)C(C)(C)[C@@H]3CC[C@]12C [Compound D4, Ginsenoside Rb2]"
  RESULT: "11.01%"

Continue with the next compound.
*Q* Give me measured Extracted samples at 8 °C for 18 h, RE, please, for this compound: O=C1C=CC[C@@H]2[C@H]3CCC[N+]4([O-])CCC[C@@H](CN12)[C@@H]34 (stereo partly drawn) [Compound A2, Oxysophocarpine]
*A* 9.98%
